System: CytA
Experiment: Enzyme kinetics of CytA (formation of deglycosylation products, anaerobic)
Type: biochemical, Streptomyces sp. SCSIO 1666
Details: substrate of CytA; 0.5 μM CytA, 20 μM NADH, anaerobic
Experimental readout: kcat (s⁻¹)

INSERT INTO assay_data (compound, experimental_readout, measurement_unit, measured) VALUES
  ('CC(=O)[C@]1(O)Cc2c(O)c3c(c(O)c2[C@@H](O[C@H]2C[C@H](N)[C@H](O)[C@H](C)O2)C1)C(=O)c1ccccc1C3=O [Compound 24, idarubicin, reference compound]', 'kcat', 's⁻¹', 0.00733),
  ('CC[C@]1(O)Cc2c(O)c3c(c(O)c2[C@@H](O[C@H]2C[C@H](N(C)C)[C@H](O)[C@H](C)O2)C1)C(=O)c1c(O)cccc1C3=O', 'kcat', 's⁻¹', 0.00283),
  ('CC[C@@]1(O)C[C@H](O)c2c(O)c3c(c(O)c2[C@H]1C(=O)OC)C(=O)c1cccc(O)c1C3=O', 'kcat', 's⁻¹', 0.00233);

###

Km overview
System: CytA
Test: Enzyme kinetics of CytA (formation of deglycosylation products, anaerobic)
Assay type: biochemical, Streptomyces sp. SCSIO 1666
Details: substrate of CytA; 0.5 μM CytA, 20 μM NADH, anaerobic
Experimental readout: Km (µM)

INSERT INTO results (compound, measurement_unit, measured) VALUES
  ('COc1cccc2c1C(=O)c1c(O)c3c(c(O)c1C2=O)C[C@@](O)(C(=O)CO)C[C@@H]3O[C@H]1C[C@H](N)[C@H](O[C@@H]2CCCCO2)[C@H](C)O1 [Compound 26, pirarubicin, reference compound]', 'µM', 49.3),
  ('COc1cccc2c1C(=O)c1c(O)c3c(c(O)c1C2=O)C[C@@](O)(C(C)=O)C[C@@H]3O[C@H]1C[C@H](N)[C@H](O)[C@H](C)O1 [Compound 22, daunorubicin, reference compound]', 'µM', 36.3),
  ('CC[C@@]1(O)C[C@H](O[C@H]2C[C@H](N(C)C)[C@@H](O[C@H]3C[C@H](O)[C@@H](O[C@H]4CC[C@H](O)[C@H](C)O4)[C@H](C)O3)[C@H](C)O2)c2c(O)c3c(c(O)c2[C@H]1O[C@H]1C[C@H](N(C)C)[C@@H](O[C@H]2CC[C@H](O[C@H]4CC[C@H](O)[C@H](C)O4)[C@H](C)O2)[C@H](C)O1)C(=O)c1cccc(O)c1C3=O', 'µM', 14.3),
  ('CC[C@]1(O)Cc2c(O)c3c(c(O)c2[C@@H](O[C@H]2C[C@H](N(C)C)[C@H](O)[C@H](C)O2)C1)C(=O)c1c(O)cccc1C3=O', 'µM', 12.7);

###

Test: Cytotoxic activity, MTT method
Format: cell-based
Settings: human; Huvec-12 normal cell line; read-out: Cytotoxic activities IC50, Huvec-12
pIC50: −log10 of the molar value.
pIC50 overview
Experimental readout: pIC50

INSERT INTO assay_data (record_smiles, experimental_readout, measured) VALUES
  ('CC[C@@]1(O[C@H]2C[C@H](N(C)C)[C@H](O)[C@H](C)O2)CCc2c(O)c3c(c(O)c2[C@H]1O[C@H]1C[C@H](N(C)C)[C@H](O[C@H]2CC[C@H](O[C@H]4CC[C@H](O)[C@H](C)O4)[C@H](C)O2)[C@H](C)O1)C(=O)c1cccc(O)c1C3=O', 'pIC50', 5.37),
  ('CC[C@@]1(O)C[C@H](O[C@H]2C[C@H](N(C)C)[C@H](O[C@H]3C[C@H](O)[C@H](O[C@H]4CC[C@H](O)[C@H](C)O4)[C@H](C)O3)[C@H](C)O2)c2c(O)c3c(c(O)c2[C@H]1O[C@H]1C[C@H](N(C)C)[C@H](O[C@H]2C[C@H](O)[C@H](O[C@H]4CC[C@H](O)[C@H](C)O4)[C@H](C)O2)[C@H](C)O1)C(=O)c1cccc(O)c1C3=O', 'pIC50', 6.52),
  ('CC[C@@]1(O)C[C@H](O[C@H]2C[C@H](N(C)C)[C@H](O)[C@H](C)O2)c2c(O)c3c(c(O)c2[C@H]1C(=O)OC)C(=O)c1cccc(O)c1C3=O', 'pIC50', 5.14);

###

System: CytA
Experiment: Enzyme kinetics of CytA (formation of deglycosylation products, anaerobic)
Type: biochemical, Streptomyces sp. SCSIO 1666
Settings: substrate of CytA; 0.5 μM CytA, 20 μM NADH, anaerobic
Km overview
Experimental readout: Km (µM)

INSERT INTO results (compound, experimental_readout, measurement_unit, measured) VALUES
  ('CC[C@@]1(O)C[C@H](O)c2c(O)c3c(c(O)c2[C@H]1C(=O)OC)C(=O)c1cccc(O)c1C3=O', 'Km', 'µM', 31.2),
  ('CC[C@@]1(O)C[C@H](O[C@H]2C[C@H](N(C)C)[C@H](O)[C@H](C)O2)c2c(O)c3c(c(O)c2[C@H]1C(=O)OC)C(=O)c1cccc(O)c1C3=O', 'Km', 'µM', 8.5),
  ('COc1cccc2c1C(=O)c1c(O)c3c(c(O)c1C2=O)C[C@@](O)(C(=O)CO)C[C@@H]3O[C@H]1C[C@H](N)[C@H](O)[C@H](C)O1 [Compound 23, doxorubicin, reference compound]', 'Km', 'µM', 31),
  ('CC(=O)[C@]1(O)Cc2c(O)c3c(c(O)c2[C@@H](O[C@H]2C[C@H](N)[C@H](O)[C@H](C)O2)C1)C(=O)c1ccccc1C3=O [Compound 24, idarubicin, reference compound]', 'Km', 'µM', 28.5);

###

Tested on: CytA
Test: Enzyme kinetics of CytA (formation of deglycosylation products, anaerobic)
Assay type: biochemical, Streptomyces sp. SCSIO 1666
Details: substrate of CytA; 0.5 μM CytA, 20 μM NADH, anaerobic
Experimental readout: Km (µM)

INSERT INTO results (molecule, experimental_readout, measurement_unit, measured) VALUES
  ('CC[C@@]1(O)C[C@H](O[C@H]2C[C@H](N(C)C)[C@H](O[C@H]3C[C@H](O)[C@H](O[C@H]4CC[C@H](O)[C@H](C)O4)[C@H](C)O3)[C@H](C)O2)c2c(O)c3c(c(O)c2[C@H]1O[C@H]1C[C@H](N(C)C)[C@H](O[C@H]2C[C@H](O)[C@H](O[C@H]4CC[C@H](O)[C@H](C)O4)[C@H](C)O2)[C@H](C)O1)C(=O)c1cccc(O)c1C3=O [Compound 7, cosmomycin D]', 'Km', 'µM', 17.9),
  ('COc1cccc2c1C(=O)c1c(O)c3c(c(O)c1C2=O)C[C@@](O)(C(=O)CO)C[C@@H]3O[C@H]1C[C@H](N)[C@@H](O)[C@H](C)O1 [Compound 25, epirubicin, reference compound]', 'Km', 'µM', 38.6);

###

MIC overview
System: Staphylococcus aureus 745524
Assay: Antibacterial activity, broth dilution MIC
Assay type: cell-based
Settings: Staphylococcus aureus, 745524, read-out: MIC values, SA2
Experimental readout: MIC (ng/mL)

INSERT INTO measurements (molecule, measured) VALUES
  ('CC[C@@]1(O)C[C@H](O[C@H]2C[C@H](N(C)C)[C@@H](O[C@H]3C[C@H](O)[C@@H](O[C@H]4CC[C@H](O)[C@H](C)O4)[C@H](C)O3)[C@H](C)O2)c2c(O)c3c(c(O)c2[C@H]1O[C@H]1C[C@H](N(C)C)[C@@H](O[C@H]2CC[C@H](O[C@H]4CC[C@H](O)[C@H](C)O4)[C@H](C)O2)[C@H](C)O1)C(=O)c1cccc(O)c1C3=O [Compound 6, cosmomycin C]', 5),
  ('CC[C@@]1(O)C[C@H](O[C@H]2C[C@H](N(C)C)[C@H](O[C@H]3C[C@H](O)[C@H](O[C@H]4CC[C@H](O)[C@H](C)O4)[C@H](C)O3)[C@H](C)O2)c2c(O)c3c(c(O)c2[C@H]1O[C@H]1C[C@H](N(C)C)[C@H](O[C@H]2C[C@H](O)[C@H](O[C@H]4CC[C@H](O)[C@H](C)O4)[C@H](C)O2)[C@H](C)O1)C(=O)c1cccc(O)c1C3=O [Compound 7, cosmomycin D]', 5),
  ('CC[C@@]1(O[C@H]2C[C@H](N(C)C)[C@H](O)[C@H](C)O2)CCc2c(O)c3c(c(O)c2[C@H]1O[C@H]1C[C@H](N(C)C)[C@H](O[C@H]2CC[C@H](O[C@H]4CC[C@H](O)[C@H](C)O4)[C@H](C)O2)[C@H](C)O1)C(=O)c1cccc(O)c1C3=O [Compound 1, cytorhodin X]', 2000);

###

Tested on: MDA-MB-231 human triple negative breast adenocarcinoma cell line
Assay: Cytotoxic activity, MTT method
Assay type: cell-based
Conditions: MDA-MB-231, read-out: Cytotoxic activities IC50, MDA-MB-231
log10(IC50) overview
Experimental readout: log10(IC50) (log10 of the value in µM)

INSERT INTO measurements (molecule, measured) VALUES
  ('CC[C@]1(O)Cc2c(O)c3c(c(O)c2[C@@H](O[C@H]2C[C@H](N(C)C)[C@H](O)[C@H](C)O2)C1)C(=O)c1c(O)cccc1C3=O [Compound 8, 10-decarbomethoxy-ε-rhodomycin]', 0.88),
  ('CC[C@@]1(O)C[C@H](O[C@H]2C[C@H](N(C)C)[C@H](O[C@H]3C[C@H](O)[C@H](O[C@H]4CC[C@H](O)[C@H](C)O4)[C@H](C)O3)[C@H](C)O2)c2c(O)c3c(c(O)c2[C@H]1O[C@H]1C[C@H](N(C)C)[C@H](O[C@H]2C[C@H](O)[C@H](O[C@H]4CC[C@H](O)[C@H](C)O4)[C@H](C)O2)[C@H](C)O1)C(=O)c1cccc(O)c1C3=O [Compound 7, cosmomycin D]', -0.18),
  ('COc1cccc2c1C(=O)c1c(O)c3c(c(O)c1C2=O)C[C@@](O)(C(=O)CO)C[C@@H]3O[C@H]1C[C@H](N)[C@H](O)[C@H](C)O1 [Compound 23, doxorubicin, reference compound]', 1.23),
  ('CC[C@@]1(O)CCc2c(O)c3c(c(O)c2[C@H]1O[C@H]1C[C@H](N(C)C)[C@H](O)[C@H](C)O1)C(=O)c1cccc(O)c1C3=O [Compound 5, iremycin]', 1.31),
  ('CC[C@@]1(O)C[C@H](O[C@H]2C[C@H](N(C)C)[C@@H](O[C@H]3C[C@H](O)[C@@H](O[C@H]4CC[C@H](O)[C@H](C)O4)[C@H](C)O3)[C@H](C)O2)c2c(O)c3c(c(O)c2[C@H]1O[C@H]1C[C@H](N(C)C)[C@@H](O[C@H]2CC[C@H](O[C@H]4CC[C@H](O)[C@H](C)O4)[C@H](C)O2)[C@H](C)O1)C(=O)c1cccc(O)c1C3=O [Compound 6, cosmomycin C]', -0.19),
  ('CC[C@@]1(O)C[C@H](O[C@H]2C[C@H](N(C)C)[C@H](O)[C@H](C)O2)c2c(O)c3c(c(O)c2[C@H]1C(=O)OC)C(=O)c1cccc(O)c1C3=O [Compound 9, ε-rhodomycin]', 0.82),
  ('CC[C@@]1(O[C@H]2C[C@H](N(C)C)[C@H](O)[C@H](C)O2)CCc2c(O)c3c(c(O)c2[C@H]1O[C@H]1C[C@H](N(C)C)[C@H](O[C@H]2C[C@H](O)[C@H](O[C@H]4CC[C@H](O)[C@H](C)O4)[C@H](C)O2)[C@H](C)O1)C(=O)c1cccc(O)c1C3=O [Compound 2, cytorhodin Y]', 1.24),
  ('CC[C@@]1(O)CCc2c(O)c3c(c(O)c2[C@H]1O[C@H]1C[C@H](N(C)C)[C@H](O[C@H]2CC[C@H](O[C@H]4CC[C@H](O)[C@H](C)O4)[C@H](C)O2)[C@H](C)O1)C(=O)c1cccc(O)c1C3=O [Compound 3, cosmomycin A]', 0.13),
  ('CC[C@@]1(O)CCc2c(O)c3c(c(O)c2[C@H]1O[C@H]1C[C@H](N(C)C)[C@H](O[C@H]2C[C@H](O)[C@H](O[C@H]4CC[C@H](O)[C@H](C)O4)[C@H](C)O2)[C@H](C)O1)C(=O)c1cccc(O)c1C3=O [Compound 4, cosmomycin B]', -0.07),
  ('CC[C@@]1(O[C@H]2C[C@H](N(C)C)[C@H](O)[C@H](C)O2)CCc2c(O)c3c(c(O)c2[C@H]1O[C@H]1C[C@H](N(C)C)[C@H](O[C@H]2CC[C@H](O[C@H]4CC[C@H](O)[C@H](C)O4)[C@H](C)O2)[C@H](C)O1)C(=O)c1cccc(O)c1C3=O [Compound 1, cytorhodin X]', 1.27);
